- Target Entity: Human immunodeficiency virus type 1 reverse transcriptase (Human immunodeficiency virus 1)
- Procedure Details: Inhibition of wild-type HIV-1 reverse transcriptase by Picogreen assay

{"columns": ["Smiles Repr", "IC50, nM"],
 "data": [
  ["N#Cc1ccc2c(Oc3ccccc3OCCn3ccc(=O)[nH]c3=O)cc(F)cc2c1", 4.8]
]}

###

- Procedure Details: Selectivity index, ratio of CC50 for human C8166 cells to EC50 for HIV IIIB infected in human C8166 cells
- Format: toxicity, cell-based
- Condition Parameters: C8166 cells (uninfected, and infected with HIV IIIB), read-out: Ratio CC50/EC50

{"columns": ["Smiles Repr", "selectivity ratio"],
 "data": [
  ["CCc1c(CC2CCCCC2)nc(SCc2cc(-c3ccc(O)cc3)[nH]n2)[nH]c1=O", 25.5]
]}

###

- Test system: Human immunodeficiency virus 1
- Procedure Details: Antiviral activity against HIV-1 NL4-3 infected in human TZM-bl cells assessed as reduction in virus-induced cytopathic effect incubated for 2 days by Bright Glo assay
- Assay type: functional, organism-based
- Condition Parameters: Human immunodeficiency virus 1, NL4-3, TZM-bl, 48 h
pIC50: −log10 of the molar value.
Readout Kind: pIC50

{"columns": ["Smiles Repr", "Target Entity", "Reported Measurement"],
 "data": [
  ["COc1ccc(N(C)C(=O)[C@H](Cc2cc(F)cc(F)c2)NC(=O)c2cccc(-c3cn(Cc4ccc([N+](=O)[O-])cc4)nn3)c2)cc1", "Human immunodeficiency virus 1", 5.67]
]}
